- SYSTEM_NAME: Agam\Orco+Agam\Or65 (Anopheles gambiae, UniProt Q7QCC7)
- TEST_DESCRIPTION: Antagonism of OLC12 activation of heteromeric OR in Xenopus oocytes
- Format: cell-based
- MEASUREMENT_CONDITIONS: activated by 20µM OLC12; read-out: IC 50 for inhibition of Agam\Orco+Agam\Or65 activation

{"STRUCTURE_NOTATION": "NCCc1c[nH]c2ccccc12", "SYSTEM_NAME": "Agam\\Orco+Agam\\Or65 (Anopheles gambiae, UniProt Q7QCC7)", "IC50 / nM": 2900}

###

- SYSTEM_NAME: Dmel\Orco (Drosophila melanogaster, UniProt Q9VNB5)
- Sequence (Q9VNB5 whole entry): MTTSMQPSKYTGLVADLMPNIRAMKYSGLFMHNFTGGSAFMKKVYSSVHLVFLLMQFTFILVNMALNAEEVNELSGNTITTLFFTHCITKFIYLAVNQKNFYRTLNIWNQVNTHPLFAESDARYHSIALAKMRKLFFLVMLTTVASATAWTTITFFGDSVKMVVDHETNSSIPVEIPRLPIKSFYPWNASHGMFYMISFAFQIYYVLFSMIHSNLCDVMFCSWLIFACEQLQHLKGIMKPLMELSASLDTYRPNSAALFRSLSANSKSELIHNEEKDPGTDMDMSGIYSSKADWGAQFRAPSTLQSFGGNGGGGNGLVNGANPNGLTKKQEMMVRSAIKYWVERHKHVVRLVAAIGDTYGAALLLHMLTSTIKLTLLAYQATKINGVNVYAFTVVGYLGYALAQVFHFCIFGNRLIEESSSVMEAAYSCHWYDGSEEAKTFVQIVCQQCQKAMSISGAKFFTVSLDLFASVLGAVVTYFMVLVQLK
- TEST_DESCRIPTION: Agonist concentration-response, two-electrode voltage clamp in Xenopus oocytes
- MEASUREMENT_CONDITIONS: normalizing conc. 10µM OLC12
pEC50: −log10 of the molar value.

{"STRUCTURE_NOTATION": "CCn1c(SCC(=O)Nc2ccc(C(C)C)cc2)nnc1-c1ccncc1", "SYSTEM_NAME": "Dmel\\Orco (Drosophila melanogaster, UniProt Q9VNB5)", "pEC50": 4.44}

###

- SYSTEM_NAME: Agam\Orco+Agam\Or65 (Anopheles gambiae)
- TEST_DESCRIPTION: Inhibition of odorant activation of heteromeric OR in Xenopus oocytes
- Assay type: cell-based
- MEASUREMENT_CONDITIONS: IC 50 for inhibition of responses to eugenol, Agam\Orco+Agam\Or65; 100nM eugenol
pIC50: −log10 of the molar value.
MEASURE_NAME: pIC50

{"STRUCTURE_NOTATION": "NCCc1c[nH]c2ccccc12", "MEASURE_NAME": "pIC50", "MEASURED_NUMBER": 5.49}

###

- SYSTEM_NAME: Agam\Orco (Anopheles gambiae)
- TEST_DESCRIPTION: Agonist concentration-response, two-electrode voltage clamp in Xenopus oocytes
- MEASUREMENT_CONDITIONS: normalizing conc. 30µM OLC12, mean ± SEM
pEC50: −log10 of the molar value.

{"STRUCTURE_NOTATION": "CCn1c(SCC(=O)Nc2ccc(C(C)C)cc2)nnc1-c1ccncc1", "pEC50": 3.91}

###

- SYSTEM_NAME: Agam\Orco+Agam\Or65 (Anopheles gambiae, UniProt Q7QCC7)
- TEST_DESCRIPTION: Inhibition of odorant activation of heteromeric OR in Xenopus oocytes
- Format: cell-based
- MEASUREMENT_CONDITIONS: IC 50 for inhibition of responses to eugenol, Agam\Orco+Agam\Or65; 10nM eugenol
MEASURE_NAME: IC50 (µM)

{"STRUCTURE_NOTATION": "NCCc1c[nH]c2ccccc12", "SYSTEM_NAME": "Agam\\Orco+Agam\\Or65 (Anopheles gambiae, UniProt Q7QCC7)", "MEASURED_NUMBER": 3.1}

###

- SYSTEM_NAME: Agam\Orco + Agam\Or65 (Anopheles gambiae, UniProt Q7QCC7)
- Sequence (Q7QCC7 whole entry): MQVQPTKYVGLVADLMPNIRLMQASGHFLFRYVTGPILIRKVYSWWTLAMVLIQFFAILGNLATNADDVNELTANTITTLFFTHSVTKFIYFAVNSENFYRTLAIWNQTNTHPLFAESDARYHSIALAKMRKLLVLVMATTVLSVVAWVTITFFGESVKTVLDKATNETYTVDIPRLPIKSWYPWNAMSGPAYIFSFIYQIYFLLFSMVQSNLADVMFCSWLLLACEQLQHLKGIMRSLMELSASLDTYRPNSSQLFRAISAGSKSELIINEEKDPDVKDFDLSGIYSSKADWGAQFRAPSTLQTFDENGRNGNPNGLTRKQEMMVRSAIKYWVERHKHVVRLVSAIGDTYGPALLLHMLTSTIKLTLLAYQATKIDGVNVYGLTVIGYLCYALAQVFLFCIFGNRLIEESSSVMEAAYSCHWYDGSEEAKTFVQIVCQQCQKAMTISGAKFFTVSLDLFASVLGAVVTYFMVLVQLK
- TEST_DESCRIPTION: Odorant and Orco agonist concentration-response, two-electrode voltage clamp in Xenopus oocytes
- MEASUREMENT_CONDITIONS: normalizing conc. 30µM OLC12
pEC50: −log10 of the molar value.

{"STRUCTURE_NOTATION": "CCn1c(SCC(=O)Nc2ccc(C(C)C)cc2)nnc1-c1ccncc1", "pEC50": 4.17}
